Target: α4β7 integrin (Homo sapiens (Human), UniProt P13612+P26010)
Sequence (P13612 34-1032): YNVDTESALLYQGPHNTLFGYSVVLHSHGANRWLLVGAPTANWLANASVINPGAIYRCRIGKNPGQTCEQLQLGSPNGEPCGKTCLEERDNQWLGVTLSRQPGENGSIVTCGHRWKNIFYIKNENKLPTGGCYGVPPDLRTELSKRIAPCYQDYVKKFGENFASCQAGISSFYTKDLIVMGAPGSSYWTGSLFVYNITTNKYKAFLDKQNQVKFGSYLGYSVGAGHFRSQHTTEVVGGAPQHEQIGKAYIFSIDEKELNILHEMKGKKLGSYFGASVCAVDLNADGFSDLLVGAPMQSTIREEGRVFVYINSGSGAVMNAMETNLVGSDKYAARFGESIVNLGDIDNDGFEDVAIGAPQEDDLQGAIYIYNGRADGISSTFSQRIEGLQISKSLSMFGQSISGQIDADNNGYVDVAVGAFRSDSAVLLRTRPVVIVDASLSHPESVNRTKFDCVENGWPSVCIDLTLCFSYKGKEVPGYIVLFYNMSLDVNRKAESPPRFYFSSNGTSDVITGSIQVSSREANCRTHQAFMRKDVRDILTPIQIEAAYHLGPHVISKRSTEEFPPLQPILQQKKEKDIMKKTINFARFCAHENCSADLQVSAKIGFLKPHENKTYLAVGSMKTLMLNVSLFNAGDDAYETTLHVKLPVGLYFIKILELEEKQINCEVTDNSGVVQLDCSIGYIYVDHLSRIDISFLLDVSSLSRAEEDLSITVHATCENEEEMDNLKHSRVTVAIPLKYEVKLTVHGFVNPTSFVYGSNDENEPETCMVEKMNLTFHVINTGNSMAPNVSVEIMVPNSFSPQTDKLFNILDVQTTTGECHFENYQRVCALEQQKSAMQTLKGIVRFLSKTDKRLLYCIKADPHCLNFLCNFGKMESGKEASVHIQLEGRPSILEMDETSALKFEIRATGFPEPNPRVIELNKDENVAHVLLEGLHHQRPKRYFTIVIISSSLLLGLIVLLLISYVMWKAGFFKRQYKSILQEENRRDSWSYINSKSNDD
Sequence (P26010 20-798): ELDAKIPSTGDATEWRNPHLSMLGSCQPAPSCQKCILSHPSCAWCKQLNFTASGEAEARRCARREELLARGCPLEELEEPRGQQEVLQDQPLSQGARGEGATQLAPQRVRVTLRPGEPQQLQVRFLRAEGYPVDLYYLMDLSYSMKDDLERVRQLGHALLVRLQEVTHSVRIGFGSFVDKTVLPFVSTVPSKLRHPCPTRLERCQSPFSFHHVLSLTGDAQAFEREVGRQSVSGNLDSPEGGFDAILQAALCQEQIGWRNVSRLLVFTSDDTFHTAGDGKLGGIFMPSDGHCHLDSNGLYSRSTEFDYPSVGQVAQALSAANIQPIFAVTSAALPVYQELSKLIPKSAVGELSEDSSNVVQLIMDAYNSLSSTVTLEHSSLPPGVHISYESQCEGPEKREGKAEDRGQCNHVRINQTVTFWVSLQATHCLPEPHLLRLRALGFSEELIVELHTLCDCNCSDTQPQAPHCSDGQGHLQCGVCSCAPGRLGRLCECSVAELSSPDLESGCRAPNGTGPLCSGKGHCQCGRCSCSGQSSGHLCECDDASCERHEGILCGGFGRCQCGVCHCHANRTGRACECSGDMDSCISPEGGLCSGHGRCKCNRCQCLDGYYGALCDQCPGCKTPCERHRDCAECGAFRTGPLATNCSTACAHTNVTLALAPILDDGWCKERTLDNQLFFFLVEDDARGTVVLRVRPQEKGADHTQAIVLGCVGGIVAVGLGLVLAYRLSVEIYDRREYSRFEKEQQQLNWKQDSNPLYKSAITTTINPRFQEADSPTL
Assay: α4β7 Integrin Cell Capture Assay
Type: cell-based
Conditions: RPMI8866 cells captured on MadCAM-1 extracellular domain-coated plate
pEC50: −log10 of the molar value.
# label = Y if pEC50 >= 10 else N

>>> df
                                   compound                           target_of_assay  classification
0  Cc1cc(N2CCOC[C@@H]2C(F)(F)F)cc(F)c1C(=O)N[C@@H](Cc1ccc(-c2cc(C(F)(F)F)c(C)n(C)c2=O)c2ncccc12)C(=O)O  α4β7 integrin (Homo sapiens (Human), UniProt P13612+P26010)               N
1  Cc1cc(N2CCOC[C@@H]2C(F)(F)F)cc(F)c1C(=O)N[C@@H](Cc1ccc(-n2c(=O)c3ccncc3n(C)c2=O)c2ncccc12)C(=O)O [Example 356]  α4β7 integrin (Homo sapiens (Human), UniProt P13612+P26010)               Y
2  Cn1c(=O)n(-c2ccc(C[C@H](NC(=O)c3c(F)cc(N4CCOC[C@@H]4C(F)(F)F)cc3F)C(=O)O)c3cccnc23)c(=O)c2cc(F)c(F)cc21  α4β7 integrin (Homo sapiens (Human), UniProt P13612+P26010)               N
3  Cc1cc(N2CCOC[C@H]2C(F)(F)F)cc(F)c1C(=O)N[C@@H](Cc1ccc(-n2c(=O)c3ccncc3n(C)c2=O)c2ncccc12)C(=O)O  α4β7 integrin (Homo sapiens (Human), UniProt P13612+P26010)               N
